target: human B1R receptor (hB1R) (Homo sapiens, UniProt P46663); construct: host or cells: CHO K1 cells; assay: FLIPR Ca2+ assay on human bradykinin 1 receptor (CHO K1 hB1R cells); type: cell-based; conditions: test substance 10 μM; CHO K1 cells with human B1R gene; agonist Lys-Des-Arg9-bradykinin 0.5 nM; compared to maximum achievable inhibition
Sequence (P46663 whole entry): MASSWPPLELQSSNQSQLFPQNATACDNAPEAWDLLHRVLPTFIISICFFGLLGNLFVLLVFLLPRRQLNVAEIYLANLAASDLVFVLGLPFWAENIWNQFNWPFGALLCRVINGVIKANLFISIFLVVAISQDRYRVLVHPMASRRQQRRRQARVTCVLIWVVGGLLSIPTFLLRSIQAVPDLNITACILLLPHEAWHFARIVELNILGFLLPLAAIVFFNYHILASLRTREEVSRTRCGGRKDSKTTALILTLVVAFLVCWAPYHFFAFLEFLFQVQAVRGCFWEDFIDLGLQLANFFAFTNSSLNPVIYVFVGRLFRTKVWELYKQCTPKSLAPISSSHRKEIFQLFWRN
readout: inhibition at 10 µM (%)

Sample records with inhibition at 10 µM:
1) COc1cccc(C2c3cccn3CCN2C(=O)COCCN(C)S(=O)(=O)c2cc(C)c(OC)c(C)c2C)c1 (stereo not drawn) [Example 38]	97
2) COc1cc(C)c(S(=O)(=O)N(C)CCOCC(=O)N2CCn3cccc3C2CCc2ccccc2)c(C)c1C (stereo not drawn) [Example 148]	100
3) COc1cc(C)c(S(=O)(=O)N(C)CCOCC(=O)N2CCn3cccc3C2c2ccc(C)c(C)c2)c(C)c1 (stereo not drawn) [Example 58]	102

[A] COc1ccc(C2c3cccn3CCN2C(=O)COCCN(CC(C)C)S(=O)(=O)c2c(C)cc(OC)c(C)c2C)cc1 (stereo not drawn) [Example 22]
[B] COc1cc(C)c(S(=O)(=O)N(CCOCC(=O)N2CCn3c(C)ccc3C2C(C)C)CC(C)C)c(C)c1C (stereo not drawn) [Example 104]
[C] COc1cc(C)c(S(=O)(=O)N(CCOCC(=O)N2CCn3cccc3C2c2ccc(Cl)nc2)Cc2ccccc2)c(C)c1C (stereo not drawn) [Example 42]
Exercise: Arrange by inhibition at 10 µM, high to low. Returns: the labels listed in the requested order.
Solution: B, A, C
(B: 93%, A: 53%, C: 33%)

[I] COc1cc(C)c(S(=O)(=O)N(CCOCC(=O)N2CCn3cccc3C2C(C)C)Cc2ccccc2)c(C)c1 (stereo not drawn) [Example 155]
[II] COc1cc(C)c(S(=O)(=O)N(CCOCC(=O)N2CCn3c(CN(C)C)ccc3C2CCc2ccccc2)Cc2ccccc2)c(C)c1C (stereo not drawn) [Example 119]
Exercise: Short answer wanted: higher inhibition at 10 µM, I or II ? Respond using the label that marks the chosen record.
Solution: I

These data points were gathered from patent US8263598B2.
